Test system: WRL-68 human liver cell line
Test: Protecting effect against hydrogen peroxide induced cell death in WRL-68 cells (MTT cell survival)
Assay type: cell-based
Study Conditions: Homo sapiens, WRL68, 0.3 mM hydrogen peroxide, 3 hours, read-out: Maximum protection
Property Label: Emax (%)

[[record]]
compound = "Cc1nc2ccccc2c(=O)[nH]1 [Compound 2, 2-methylquinazolin-4(3H)one, reference compound]"
measured_on = "WRL-68 human liver cell line"
readout_unit = "%"
result = 54

[[record]]
compound = "O=c1[nH]c(S)nc2ccccc12 [Compound 3, 2-mercaptoquinazolin-4(3H)one, reference compound]"
measured_on = "WRL-68 human liver cell line"
readout_unit = "%"
result = 52

[[record]]
compound = "CC1(C)C=C(c2nc3ccccc3c(=O)[nH]2)C(C)(C)N1O [Compound 21]"
measured_on = "WRL-68 human liver cell line"
readout_unit = "%"
result = 0

[[record]]
compound = "CC1(C)C=C(c2nc3ccccc3c(=O)[nH]2)CC(C)(C)N1 [Compound 24]"
measured_on = "WRL-68 human liver cell line"
readout_unit = "%"
result = 50

[[record]]
compound = "CN(C)CCCSc1nc2ccccc2c(=O)[nH]1 [Compound 17b]"
measured_on = "WRL-68 human liver cell line"
readout_unit = "%"
result = 65

[[record]]
compound = "CC1(C)CCCC(C)(C)N1CCSc1nc2ccccc2c(=O)[nH]1 [Compound 17d]"
measured_on = "WRL-68 human liver cell line"
readout_unit = "%"
result = 69.6


* * *

Measured On: poly(ADP-ribose) polymerase enzyme isolated from rat liver (Rattus norvegicus)
Construct: The poly(ADP-ribose) polymerase enzyme was isolated from rat liver as described earlier
Sequence (P27008 whole entry): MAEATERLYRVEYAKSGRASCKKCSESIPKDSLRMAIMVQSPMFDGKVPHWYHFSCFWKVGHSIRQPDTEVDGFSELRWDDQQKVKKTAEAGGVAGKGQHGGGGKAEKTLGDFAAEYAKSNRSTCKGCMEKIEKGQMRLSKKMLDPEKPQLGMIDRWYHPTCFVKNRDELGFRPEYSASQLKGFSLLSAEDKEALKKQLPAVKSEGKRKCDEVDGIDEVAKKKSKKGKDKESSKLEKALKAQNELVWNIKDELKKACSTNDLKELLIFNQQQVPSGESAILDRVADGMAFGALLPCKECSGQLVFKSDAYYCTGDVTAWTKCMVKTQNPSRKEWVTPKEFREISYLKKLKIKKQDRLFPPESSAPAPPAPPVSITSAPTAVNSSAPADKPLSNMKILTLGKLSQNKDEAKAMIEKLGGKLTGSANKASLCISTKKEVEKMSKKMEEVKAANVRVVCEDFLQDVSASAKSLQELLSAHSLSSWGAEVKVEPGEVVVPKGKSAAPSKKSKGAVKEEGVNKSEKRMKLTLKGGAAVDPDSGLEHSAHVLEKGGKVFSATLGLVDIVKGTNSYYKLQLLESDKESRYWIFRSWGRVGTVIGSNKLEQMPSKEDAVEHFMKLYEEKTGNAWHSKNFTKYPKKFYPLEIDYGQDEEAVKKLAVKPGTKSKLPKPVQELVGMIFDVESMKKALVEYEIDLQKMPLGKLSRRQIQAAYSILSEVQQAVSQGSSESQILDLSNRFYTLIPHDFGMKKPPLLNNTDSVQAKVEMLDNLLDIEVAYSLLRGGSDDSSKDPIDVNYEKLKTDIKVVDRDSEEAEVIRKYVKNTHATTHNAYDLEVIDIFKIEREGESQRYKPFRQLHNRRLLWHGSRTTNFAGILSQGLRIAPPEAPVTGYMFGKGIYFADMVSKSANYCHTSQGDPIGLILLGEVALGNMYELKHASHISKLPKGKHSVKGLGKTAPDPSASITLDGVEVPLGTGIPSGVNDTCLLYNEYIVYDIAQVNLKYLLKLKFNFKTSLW
Test: In vitro inhibitory effect on PARP enzyme ([3H]-NAD+ incorporation)
Study Conditions: 1 mM [3H]-NAD+, 15 minutes incubation
Property Label: IC50 (nM)

[[record]]
compound = "CC1(C)CCCC(C)(C)N1CCSc1nc2ccccc2c(=O)[nH]1 [Compound 17d]"
measured_on = "poly(ADP-ribose) polymerase enzyme isolated from rat liver (Rattus norvegicus)"
property_label = "IC50"
result = 1600

[[record]]
compound = "O=c1[nH]c(SCCN2CCCCC2)nc2ccccc12 [Compound 17c]"
measured_on = "poly(ADP-ribose) polymerase enzyme isolated from rat liver (Rattus norvegicus)"
property_label = "IC50"
result = 2600

[[record]]
compound = "CN(C)CCCSc1nc2ccccc2c(=O)[nH]1 [Compound 17b]"
measured_on = "poly(ADP-ribose) polymerase enzyme isolated from rat liver (Rattus norvegicus)"
property_label = "IC50"
result = 6000

[[record]]
compound = "CN(C)CCSc1nc2ccccc2c(=O)[nH]1 [Compound 17a]"
measured_on = "poly(ADP-ribose) polymerase enzyme isolated from rat liver (Rattus norvegicus)"
property_label = "IC50"
result = 2000


* * *

System: WRL-68 human liver cell line
Test: Protecting effect against hydrogen peroxide induced cell death in WRL-68 cells (MTT cell survival)
Assay type: cell-based
Study Conditions: Homo sapiens, WRL68, 0.3 mM hydrogen peroxide, 3 hours, read-out: Maximum protection
Rule: Emax under 60% gives 0.0, otherwise 1.0.

[[record]]
molecule = "Cc1nc2ccccc2c(=O)n1CC1=CC(C)(C)NC1(C)C [Compound 9]"
discrete_label = 0.0

[[record]]
molecule = "CN(C)CCSc1nc2ccccc2c(=O)[nH]1 [Compound 17a]"
discrete_label = 1.0

[[record]]
molecule = "O=c1[nH]c(SCCN2CCCCC2)nc2ccccc12 [Compound 17c]"
discrete_label = 1.0

[[record]]
molecule = "CC1(C)C=C(c2nc3ccccc3c(=O)[nH]2)CC(C)(C)N1O [Compound 23]"
discrete_label = 0.0

